Literature-derived pIC50 for Cytochrome P450 2D6 (Homo sapiens, UniProt P10635) follows.
Kindly note that pIC50 refers to -log10 of the concentration in mol/L and answer with the value alone.

Cc1cc2c(NC(=O)N[C@@H]3CC(C)(C)Oc4cc(F)ccc43)cccc2cn1 | 4.77
CCS(=O)(=O)c1ccc2[nH]c(-c3ccc(Cl)c(-c4ccccc4)c3)nc2c1 | 4.74
N[C@H]1CN(c2ccc3nc(C(F)(F)F)nn3n2)CC[C@@H]1c1cc(F)c(F)cc1F | 7.00
COc1ncnc(N2Cc3cn(-c4cccc(S(C)(=O)=O)c4)nc3[C@H]2C(C)C)c1F | 4.57

Data request: Recorded pIC50 of Cc1cccc(C)c1CNc1nc(-n2ccccc2=O)cc2c(C)c(C)n(CCO)c12 , please.
Data returned: 4.34

Data request: Here is the next molecule: CCOC1(c2ccccc2)SC=C(C)n2c1noc2=O (stereo not given)
Data returned: 4.77

Data request: What do you get for O=C(N[C@@H]1C[C@H]2CC[C@@H](C1)N2Cc1ccc2cc(F)ccc2c1)c1cnccc1C(=O)N1CCCCC1 ?
Data returned: 4.57

Data request: Similarly, Cc1cc([C@H]2C[C@H]3[C@@H](C)SC(N)=N[C@@]3(c3ccc(F)cc3F)CO2)on1 ?
Data returned: 4.85

Data request: And the next one, CCn1cncc1-c1c[nH]c2ccc(C(N)=O)cc12 ?
Data returned: 5.13

Data request: What about this molecule? CNC(=O)[C@@]12C[C@@H]1[C@@H](n1cnc3c(NCCc4ccc(OC)c(OC)c4)nc(C#Cc4ccc(Cl)s4)nc31)[C@H](O)[C@@H]2O
Data returned: 4.75
